Listed below: pKd values for each entry.
target-of-assay: T1, Recombinant human IL-1beta (rhIL-1b) (human, UniProt P01584 117-269)
T1 construct: R&D Systems Cat. No. 201-LB/CF; also called IL-1β; human IL-1β
protocol-details: Biacore, Low Resolution screen
Just so you know, pKd here is -log10 of the concentration in molar units; reply with that number alone.

{"binder": "8.6.1 (antibody, human IgG4, V domains shown, lambda; also called 8.6.3) VH: QVQLQESGPGLVKPSETLSLTCTVSGGSVSSGGYYWSWVRQPPGKGLEWIGCIYFSESTNYNPSLKSRVTISVDTSKNQFSLKLSSVTAADTAVYYCARDPMHYYGMDVWGQGTTVTVSS VL: SFELTQPPSVSVSPGQTASITCSGDKLGDKFACWYQQKPGQSPVLVIYQDTKRPSGIPERISGSNSGNTATLTISGTQAMDEADYYCQAWDSSTYVVFGGGTKLTVL", "pKd": 8.91}
{"binder": "6.26.1 (antibody, human IgG4, V domains shown, lambda; also called 6.26.4) VH: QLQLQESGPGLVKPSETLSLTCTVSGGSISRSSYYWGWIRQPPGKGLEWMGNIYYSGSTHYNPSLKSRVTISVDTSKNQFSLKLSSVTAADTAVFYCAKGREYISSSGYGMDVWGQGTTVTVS VL: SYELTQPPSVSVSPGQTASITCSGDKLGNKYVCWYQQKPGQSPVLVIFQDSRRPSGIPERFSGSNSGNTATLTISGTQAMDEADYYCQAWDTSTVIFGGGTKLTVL", "pKd": 9.32}
{"binder": "9.2.1 (antibody, human IgG4, V domains shown, lambda) VH: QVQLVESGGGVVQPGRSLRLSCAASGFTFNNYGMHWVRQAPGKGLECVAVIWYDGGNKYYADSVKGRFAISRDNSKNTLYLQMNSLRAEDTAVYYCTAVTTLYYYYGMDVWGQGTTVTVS VL: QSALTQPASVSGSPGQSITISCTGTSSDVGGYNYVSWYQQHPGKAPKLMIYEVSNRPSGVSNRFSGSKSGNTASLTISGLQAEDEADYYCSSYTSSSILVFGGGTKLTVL", "pKd": 9.13}

Then this binder:
Q: Output measured pKd for this item: 5.5.1 (antibody, IgG4, V domains shown, lambda; also called mAb 5.5.1; Ab 5.5.1) VH: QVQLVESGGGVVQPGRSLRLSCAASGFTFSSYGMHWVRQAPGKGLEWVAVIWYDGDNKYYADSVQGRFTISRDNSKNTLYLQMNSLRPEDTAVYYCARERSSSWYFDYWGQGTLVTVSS VL: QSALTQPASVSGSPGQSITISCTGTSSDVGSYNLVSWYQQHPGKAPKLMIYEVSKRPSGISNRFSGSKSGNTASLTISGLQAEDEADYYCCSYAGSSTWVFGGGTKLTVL
Ans: 9.56
